Each item that follows carries a reported fraction ligated.
B1: F1*; the commonest letter at each place (parent)
chain: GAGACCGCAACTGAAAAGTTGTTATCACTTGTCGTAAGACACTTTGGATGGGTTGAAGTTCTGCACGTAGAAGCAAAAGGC

Variants of: B1
METHOD: fraction ligated after 30 min (ligated reads / total reads); higher = more ligase activity
CONDITION INFO: with F1*sub RNA substrate (template-directed ligation), 42 °C
REPORTED PROPERTY: fraction ligated

MUTATION LABEL: C33G A41C
REPORTED PROPERTY: fraction ligated
OBSERVED: 0.822
//
MUTATION LABEL: T23A T30G
REPORTED PROPERTY: fraction ligated
OBSERVED: 0.803
//
MUTATION LABEL: T29G A57C
REPORTED PROPERTY: fraction ligated
OBSERVED: 0.765
//
MUTATION LABEL: G38C T49A
REPORTED PROPERTY: fraction ligated
OBSERVED: 0.233
//
MUTATION LABEL: C33T G47T
REPORTED PROPERTY: fraction ligated
OBSERVED: 0.32
//
MUTATION LABEL: T30A C33G
REPORTED PROPERTY: fraction ligated
OBSERVED: 0.84
